Assay: HPLC membrane binding on immobilized artificial membrane IAM.PS
Type: physicochemical
Details: Table 1
Doc: threshold 10 (exclusive). Items with Membrane binding properties IAM.PS beneath it return Satisfied; others return Not satisfied.

Lookup: Dear colleague, could you confirm whether Membrane binding properties IAM.PS of COc1cc(CCN)cc(OC)c1OC [mescaline] falls below 10? Thanks.
Found: Not satisfied

Lookup: Quick check: does CC(N)Cc1ccc(I)cc1 (stereo not drawn) [p-iodoamphetamine] have Membrane binding properties IAM.PS under 10?
Found: Not satisfied

Lookup: Given COc1cc(CCNC(C)=O)cc(OC)c1OC [n-acetylmescaline] , is recorded Membrane binding properties IAM.PS strictly lower than 10?
Found: Satisfied

Lookup: Report whether reported Membrane binding properties IAM.PS is lower than 10 (strictly) for COc1cc(C[C@@H](C)N)c(OC)cc1I [(R)-2,5-dimethoxy-4-iodoamphetamine]
Found: Not satisfied

Lookup: Strictly below 10: is that where Membrane binding properties IAM.PS of CN(C)CCc1c[nH]c2cccc(O)c12 [psilocin] sits?
Found: Satisfied

Lookup: Quick check: Membrane binding properties IAM.PS of COc1cc(CC(C)N)c(OC)cc1Br (stereo not drawn) [2,5-dimethoxy-4-bromoamphetamine] under 10?
Found: Not satisfied

----------
Assay: HPLC membrane binding on immobilized artificial membrane IAM.PS
Assay type: physicochemical
Details: Ln weighted, Table 3
Description: The analysis is made by pattern matching membrane binding constants measured on immobilized artificial membrane columns in a high performance liquid chromatography system. Two or more immobilized artificial membrane chromatographic columns are used. Each test compound is injected and chromatographed on each column and the peak width and the peak time of the test compound is recorded and normalized to an internal or external standard. […]
readout_kind: Membrane affinity IAM.PS

Lookup: Using the record for COc1cc(CC(C)N)c(OC)cc1I (centres unmarked) , state its measured Membrane affinity IAM.PS.
Found: 6.13

Lookup: Quote Membrane affinity IAM.PS reported for COc1cc(CCN)cc(OC)c1OC please.
Found: 2.43

Lookup: Annotate the compound COc1cc(CC(C)N)c(OC)cc1Br (centres unmarked) with its measured Membrane affinity IAM.PS.
Found: 4.68

Lookup: Please report the measured Membrane affinity IAM.PS for CN(C)CCc1c[nH]c2cccc(O)c12
Found: 2.80

Lookup: Quick one: give measured Membrane affinity IAM.PS for CC(N)Cc1ccc2c(c1)OCO2 (centres unmarked)
Found: 3.28

----------
Assay: HPLC membrane binding on immobilized artificial membrane IAM.SM
Format: physicochemical
Details: Ln weighted, Table 3
readout_kind: Membrane affinity IAM.SM
Output spec: single numeric token, no unit.

Lookup: Name the recorded Membrane affinity IAM.SM of the molecule listed here: COc1cc(CC(C)N)c(OC)cc1I (centres unmarked) [DOI]
Found: 2.14

Lookup: Kindly indicate its recorded Membrane affinity IAM.SM. Item: COc1cc(CCN)cc(OC)c1OC [mescaline]
Found: −0.715

Lookup: Report measured Membrane affinity IAM.SM; entry is CN(C)CCc1c[nH]c2cccc(O)c12 [psilocin]
Found: 0.502

Lookup: Indicate its recorded Membrane affinity IAM.SM; the molecule in question is CC(N)Cc1ccc2c(c1)OCO2 (centres unmarked) [MDA, 3,4-methylendioxyamphetamine]
Found: −0.0647

Lookup: Input COc1cc(CC(C)N)c(OC)cc1Br (centres unmarked) [2,5-dimethoxy-4-bromoamphetamine] , output reported Membrane affinity IAM.SM.
Found: 1.62
